meta.source: paper PMC4061482

Biological target: AKR1C3 (Homo sapiens)
Sequence (P42330 whole entry): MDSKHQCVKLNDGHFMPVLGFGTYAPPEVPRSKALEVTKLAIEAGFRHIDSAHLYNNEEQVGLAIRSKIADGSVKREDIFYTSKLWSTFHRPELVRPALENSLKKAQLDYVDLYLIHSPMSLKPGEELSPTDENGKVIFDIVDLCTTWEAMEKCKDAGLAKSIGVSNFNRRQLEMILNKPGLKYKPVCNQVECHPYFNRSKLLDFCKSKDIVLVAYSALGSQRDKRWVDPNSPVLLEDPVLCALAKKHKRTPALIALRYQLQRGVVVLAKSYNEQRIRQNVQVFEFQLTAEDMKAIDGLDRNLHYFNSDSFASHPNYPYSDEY
Assay: 11β-PGF2α formation from PGD2 by ELISA in HCT116 AKR1C3 cells
Conditions: 28 nM PGD2, 24 h, read-out: EC50 of inhibition of 11β-PGF2α formation from PGD2
Protocol: Cells were seeded into 96-well plates in hormone-deprived media at appropriate seeding densities [10,000–50,000 cells per well for all lines except HCC1500 (100,000 cells per well; 11β-PGF2α ELISA)] to reach approximately 70% confluency at the time of sampling and were left to settle for 24 h at 37°C and 5% CO2. […] The PGD2 11-ketoreductase activity of AKR1C3 was determined by stimulating the cell line panel with PGD2 for 24 h, then detecting 11β-PGF2α levels by ELISA.
pEC50: −log10 of the molar value.
Assay Metric: pEC50

Molecule	Assay Metric	Numeric Result
CC(=O)O[C@]1(C(C)=O)CC[C@H]2[C@@H]3C[C@H](C)C4=CC(=O)CC[C@]4(C)[C@H]3CC[C@@]21C [MPA, medroxyprogesterone acetate]	pEC50	5.62
